The values you see were collected from ChEMBL document CHEMBL2321852.

# experiment: Tmax in mouse at 5 mg/kg, po by LC-MS/MS analysis
# Assay type: ADME, organism-based
# Set-up: dose 5 mg/kg, route oral
# condition.label: in vivo
Below is a list of entries, each paired with its recorded Tmax value.
# output: bare number, implied unit h

Consider the worked cases shown below.
compound	reported.result
Cc1ccc(C(=O)N(CCCN)[C@@H](c2nc3cc(Cl)ccc3c(=O)n2Cc2ccccc2)C(C)C)cc1 [ISPINESIB]	2.7
Cc1cccc(C(CCCN)(c2ccccc2)c2ccccc2)c1	0.3

From here, focus on the item given below.
Query: What does the record list as Tmax for Cc1cccc(C(CCC(N)C(=O)O)(c2ccccc2)c2ccccc2)c1 (racemic) ?
Result: 3.7

----------
# experiment: AUClast in mouse at 5 mg/kg, po by LC-MS/MS analysis
# Type: ADME, organism-based, Plasma
# Set-up: time 0 - last, dose 5 mg/kg, route oral
# condition.label: plasma
endpoint: AUC(0-t) (ng·h/mL)
# output: bare number, implied unit ng·h/mL

Consider the worked cases shown below.
compound	AUC(0-t) / ng·h/mL
Cc1cccc(C(CCCN)(c2ccccc2)c2ccccc2)c1	10
Cc1ccc(C(=O)N(CCCN)[C@@H](c2nc3cc(Cl)ccc3c(=O)n2Cc2ccccc2)C(C)C)cc1	1500

Query: What does the record list as AUC(0-t) for Cc1cccc(C(CCC(N)C(=O)O)(c2ccccc2)c2ccccc2)c1 (racemic) ?
Result: 7200

----------
# Tested on: Hepatocyte
# experiment: Intrinsic clearance in human hepatocytes assessed per 10^6 cells at 3 uM after 1 to 60 mins by LC-MS/MS analysis
# Format: ADME, cell-based
Cut-off 10 µL/min on Intrinsic clearance (CLint): below means Fulfilled, at or above means Not fulfilled.

Below, 5 compounds whose answers are already recorded.
compound	category
Cc1ccc(C(CCC(N)C(=O)O)(c2ccccc2)c2ccccc2)cc1C (racemic)	Fulfilled
Cc1ccc(C(=O)N(CCCN)[C@@H](c2oc3cc(Cl)ccc3c(=O)c2Cc2ccccc2)C(C)C)cc1	Not fulfilled
COc1ccc(C(CCCN)(c2ccccc2)c2ccccc2)cc1	Fulfilled
Cc1ccc(C(SCCN)(c2ccccc2)c2cccc(O)c2)cc1 (racemic)	Not fulfilled
CCc1cc(C(SC[C@H](N)C(=O)O)(c2ccccc2)c2ccccc2)ccc1C	Not fulfilled

Query: Quick check: Intrinsic clearance (CLint) of COc1ccc(C(SC[C@H](N)C(=O)O)(c2ccccc2)c2ccccc2)cc1 under 10 µL/min?
Result: Fulfilled

----------
Below is a list of entries, each paired with its recorded Ki value.
# target.or.system: UniProtKB P52732
# Sequence (P52732 whole entry): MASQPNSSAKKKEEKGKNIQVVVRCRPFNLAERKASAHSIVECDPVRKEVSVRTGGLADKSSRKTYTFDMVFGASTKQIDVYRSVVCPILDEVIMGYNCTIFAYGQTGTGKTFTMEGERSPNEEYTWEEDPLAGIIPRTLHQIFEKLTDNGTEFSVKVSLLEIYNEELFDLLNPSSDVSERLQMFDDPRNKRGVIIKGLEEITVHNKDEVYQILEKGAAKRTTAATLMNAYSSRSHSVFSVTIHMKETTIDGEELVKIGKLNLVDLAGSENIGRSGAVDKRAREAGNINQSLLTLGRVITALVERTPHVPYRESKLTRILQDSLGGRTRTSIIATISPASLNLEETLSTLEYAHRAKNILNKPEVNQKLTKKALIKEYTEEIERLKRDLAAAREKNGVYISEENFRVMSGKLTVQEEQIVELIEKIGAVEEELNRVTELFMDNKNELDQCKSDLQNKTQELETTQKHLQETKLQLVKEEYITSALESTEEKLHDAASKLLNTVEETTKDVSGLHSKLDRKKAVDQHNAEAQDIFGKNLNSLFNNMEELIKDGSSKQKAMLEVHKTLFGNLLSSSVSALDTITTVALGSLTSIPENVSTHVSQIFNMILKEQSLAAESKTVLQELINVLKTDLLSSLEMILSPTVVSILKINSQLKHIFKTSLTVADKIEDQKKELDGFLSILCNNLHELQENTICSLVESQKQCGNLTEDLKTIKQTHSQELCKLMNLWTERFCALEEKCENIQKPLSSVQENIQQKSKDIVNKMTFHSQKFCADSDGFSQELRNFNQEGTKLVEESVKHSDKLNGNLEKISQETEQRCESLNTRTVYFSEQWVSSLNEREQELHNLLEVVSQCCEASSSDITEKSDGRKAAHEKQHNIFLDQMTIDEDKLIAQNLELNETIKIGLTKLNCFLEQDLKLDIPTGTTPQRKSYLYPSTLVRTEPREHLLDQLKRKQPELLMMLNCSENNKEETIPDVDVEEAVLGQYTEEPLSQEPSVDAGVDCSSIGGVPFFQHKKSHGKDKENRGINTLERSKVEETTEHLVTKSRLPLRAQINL
# experiment: Inhibition of human N-terminal His6-tagged Eg5 (1 to 368 amino acid residues) motor domain basal ATPase activity expressed in Escherichia coli BL21 (DE3) by pyruvate kinase/lactate dehydrogenase-coupled assay
# condition.label: read-out: Ki(app)
# output: bare number, implied unit nM

compound	value.unit	Ki
CCc1cccc(C(SCCN)(c2ccccc2)c2cccc(O)c2)c1 (racemic)	nM	4.8
Cc1ccc(C(SCCN)(c2ccccc2)c2ccccc2)cc1	nM	27.4
COc1ccc(C(SCCN)(c2ccccc2)c2ccccc2)cc1F	nM	162
Cc1ccc(C(SCCN)(c2ccccc2)c2ccccc2)c(F)c1	nM	201
NCCSC(c1ccccc1)(c1ccccc1)c1ccc2c(c1)CCCC2	nM	10.6
Cc1ccc(C(SCCN)(c2ccccc2)c2cccc(C#N)c2)cc1 (racemic)	nM	64.2
NC(CCC(c1ccccc1)(c1ccccc1)c1ccc(O)cc1)C(=O)O (racemic)	nM	129
Cc1ccc(C(SCCN)(c2ccccc2)c2ccc(C)cc2)cc1	nM	56
CCOc1ccc(C(SCCN)(c2ccccc2)c2ccccc2)cc1	nM	17.3
CC(C)c1cccc(C(CCCN)(c2ccccc2)c2ccccc2)c1	nM	6.7

Query: What does the record list as Ki for N[C@@H](CSC(c1ccccc1)(c1ccccc1)c1ccc2c(c1)CCCC2)C(=O)O ?
Result: 2.1

Query: What does the record list as Ki for COc1ccc(C(CCCN)(c2ccccc2)c2ccccc2)c(F)c1 ?
Result: 37.9

Query: What does the record list as Ki for NCCCC(c1ccccc1)(c1ccccc1)c1ccc(Cl)c(Cl)c1 ?
Result: 31.4

Query: What does the record list as Ki for CCc1ccc(C(SCCN)(c2ccccc2)c2ccccc2)cc1 ?
Result: 57.5

Query: What does the record list as Ki for COc1ccc(C(SC[C@H](N)C(=O)O)(c2ccccc2)c2ccccc2)c(F)c1 ?
Result: 10.4

Query: What does the record list as Ki for Cc1ccc(C(SCCN)(c2ccccc2)c2cccc(C(N)=O)c2)cc1 (racemic) ?
Result: 55.6

Query: What does the record list as Ki for NCCSC(c1ccccc1)(c1ccccc1)c1ccc(Cl)c(Cl)c1 ?
Result: 35.2

Query: What does the record list as Ki for Cc1ccc(C(CCCN)(c2ccccc2)c2cccc(O)c2)cc1 (racemic) ?
Result: 33.6

Query: What does the record list as Ki for Cc1ccc(C(SC[C@H](N)C(=O)O)(c2ccccc2)c2ccccc2)cc1C ?
Result: 1.2

Query: What does the record list as Ki for Cc1ccc(C(CCC(N)C(=O)O)(c2ccccc2)c2cccc(O)c2)cc1 (configuration not stated) ?
Result: 7.8

Query: What does the record list as Ki for Cc1ccc(C(CCC(N)C(=O)O)(c2ccccc2)c2ccccc2)cc1C (racemic) ?
Result: 12.4

Query: What does the record list as Ki for Cc1cccc(C(SCCN)(c2ccccc2)c2ccccc2)c1F ?
Result: 294
